Literature roundup of UniProt P00742 data, read-out Ki.

Incoming: Provide value of Ki for this record tested with UniProt P00742: CC1(C)C2CC3OB([C@H](CCCCN)NC(=O)Cn4nc(Cc5ccccc5)nc4-c4ccccc4)OC3(C)C1C2 (stereo partly drawn)
Outgoing: 500 to 50000 nM

Incoming: Provide value of Ki for this record tested with UniProt P00742: COc1ccc(-n2nc(C(N)=O)c3c2C(=O)N(C2CCN(N4CCCCC4=O)CC2)CC3)cc1
Outgoing: ≤ 10 nM

Incoming: Provide value of Ki for this record tested with UniProt P00742: NCc1ccc(Cl)cc1CNC(=O)[C@@H]1CCCN1C(=O)[C@@H](CC(=O)Nc1cc[n+]([O-])cc1)NS(=O)(=O)Cc1ccccc1
Outgoing: 17 nM

====

Literature roundup of Coagulation factor X (Homo sapiens, UniProt P00742) data, read-out Ki.

Incoming: Any idea what its Ki is? The molecule is Cc1cc(C(=O)NCc2ccc(C(=N)N)cc2)c(C)n1Cc1ccncc1
Outgoing: > 10000 nM

Incoming: Any idea what its Ki is? The molecule is CC1(C)C2CC3OB(C(Cc4cccc(C#N)c4)NC(=O)[C@@H]4CCCN4C(=O)[C@H](N)Cc4ccccn4)OC3(C)C1C2 (stereo partly drawn)
Outgoing: < 50000 nM

Incoming: Any idea what its Ki is? The molecule is CCN(CC)S(=O)(=O)c1ccccc1-c1ccc(C(=O)N[C@@H](CCCNC(=N)N)B2O[C@@H]3C[C@@H]4C[C@@H](C4(C)C)[C@]3(C)O2)c(C)c1
Outgoing: < 500 nM

Incoming: Any idea what its Ki is? The molecule is CC(C)N1CCC(NC(=O)c2cc3[nH]c(=O)ccc3n2Cc2cc(-c3ccc(Cl)s3)on2)CC1
Outgoing: 23 nM

Incoming: Any idea what its Ki is? The molecule is Cc1cc(-c2ccccc2)ccc1C(=O)N[C@@H](CCCNC(=N)N)B(O)O
Outgoing: < 500 nM

Incoming: Any idea what its Ki is? The molecule is Cc1c(Br)c(C)n(CC(=O)Nc2ccc(Cl)cn2)c1C(=O)NC1CCN(C(C)C)CC1
Outgoing: 11 nM

Incoming: Any idea what its Ki is? The molecule is CC1(C)[C@@H]2C[C@H]3OB([C@H](CCCCN)NC(=O)Cn4nc(-c5cccc([N+](=O)[O-])c5)nc4Cc4ccccc4)O[C@@]3(C)[C@H]1C2
Outgoing: 500 to 50000 nM

Incoming: Any idea what its Ki is? The molecule is NC(=O)c1cccc(-n2nc(C(F)(F)F)c3c2C(=O)N(C2CCN(N4CCOCC4=O)CC2)CC3)c1
Outgoing: ≤ 10 nM

Incoming: Any idea what its Ki is? The molecule is CC(C)N1CCC(NC(=O)c2cc(C(=O)OCc3ccccc3)n(Cc3cc(-c4ccc(Cl)s4)on3)c2)CC1
Outgoing: 9580 nM

====

Literature roundup of Coagulation factor X (Homo sapiens) data, read-out pKi.
pKi: −log10 of the molar value.

Incoming: Any idea what its pKi is? The molecule is C/C(=C\S(=O)(=O)N(C1CCCC1)[C@H]1CCN(c2ccc(C(=O)N(C)C)cc2F)C1=O)c1ccc(Cl)s1
Outgoing: > 8.00

Incoming: Any idea what its pKi is? The molecule is C/C(=C\S(=O)(=O)N(CCOCC(N)=O)[C@H]1CCN(c2ccc(C(=O)N(C)C)cc2F)C1=O)c1ccc(Cl)s1
Outgoing: > 8.00

Incoming: Any idea what its pKi is? The molecule is CC(C)(C)OC(=O)N[C@H](Cc1cccnc1)C(=O)N1CCCC1C(=O)NC(Cc1cccc(C#N)c1)B1OC2CC3CC(C3(C)C)C2(C)O1 (stereo partly shown)
Outgoing: > 6.30

Incoming: Any idea what its pKi is? The molecule is CC1(C)C2CC3OB([C@H](CCCNC(=N)N)NC(=O)Cn4nc(-c5cccc([N+](=O)[O-])c5)nc4Cc4ccccc4)OC3(C)C1C2 (single isomer, unassigned)
Outgoing: 4.30 to 6.30
